Where do these numbers come from? They come from patent US20100136009A1.

# SYSTEM NAME: T1, native Ovr110 protein on tumor cells (ZR-75-1, SKBR3, RL95.2, OVCAR3) (human, UniProt Q7Z7D3 25-282)
# T1 construct: whole, on cells; Endogenous protein of Ovr110-positive tumor cell lines; also called B7-H4; B7x
# T1 sequence (looked up): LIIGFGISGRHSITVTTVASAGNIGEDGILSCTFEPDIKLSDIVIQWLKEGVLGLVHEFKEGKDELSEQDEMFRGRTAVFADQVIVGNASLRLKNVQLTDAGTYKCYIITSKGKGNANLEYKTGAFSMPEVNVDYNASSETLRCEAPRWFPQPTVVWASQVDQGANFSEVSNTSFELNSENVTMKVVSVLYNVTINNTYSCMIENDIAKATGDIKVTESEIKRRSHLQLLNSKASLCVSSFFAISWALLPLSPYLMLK
# PROTOCOL SUMMARY: flow cytometry; hybridoma supernatant; SKBR3 cells
MEASUREMENT KIND: Mean Fluorescence Intensity (MFI)
Give bare numbers.

// solved cases for Mean Fluorescence Intensity (MFI) follow
Ovr110.Q27 (antibody, IgG1, V domains shown, Mouse hybridoma MAb; also called Q27.4; Q27.2) VH: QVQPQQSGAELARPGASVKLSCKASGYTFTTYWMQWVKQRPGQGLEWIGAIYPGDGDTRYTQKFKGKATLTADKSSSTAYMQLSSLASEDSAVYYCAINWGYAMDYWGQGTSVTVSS VL: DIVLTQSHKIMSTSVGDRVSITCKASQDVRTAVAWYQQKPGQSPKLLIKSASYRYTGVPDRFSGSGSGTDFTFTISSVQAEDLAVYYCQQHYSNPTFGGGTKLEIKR : 1.48
Ovr110.Q19 (antibody, IgG1, V domains shown, Mouse hybridoma MAb; also called Q19.6; Ovr110.Q19.6) VH: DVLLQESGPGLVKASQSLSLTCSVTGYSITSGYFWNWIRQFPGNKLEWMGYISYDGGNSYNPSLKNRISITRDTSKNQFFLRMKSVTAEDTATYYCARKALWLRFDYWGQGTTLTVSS VL: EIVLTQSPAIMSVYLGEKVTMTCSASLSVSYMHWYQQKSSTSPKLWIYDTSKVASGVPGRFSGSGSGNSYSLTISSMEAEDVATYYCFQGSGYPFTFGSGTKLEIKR : 10.4
Ovr110.Q12 (antibody, IgG1, V domains shown, Mouse hybridoma MAb; also called Q12.2; Ovr110.Q12.2) VH: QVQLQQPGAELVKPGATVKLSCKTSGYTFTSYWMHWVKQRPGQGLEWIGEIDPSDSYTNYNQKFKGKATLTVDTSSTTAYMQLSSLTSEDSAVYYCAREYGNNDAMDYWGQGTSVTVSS VL: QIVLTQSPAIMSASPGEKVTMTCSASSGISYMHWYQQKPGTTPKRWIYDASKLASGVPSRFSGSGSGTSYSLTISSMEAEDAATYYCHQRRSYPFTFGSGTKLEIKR : 12
Ovr110.Q11 (antibody, V domains shown, Mouse hybridoma MAb; also called Q11.12.3; Ovr110.Q11.12.3) VH: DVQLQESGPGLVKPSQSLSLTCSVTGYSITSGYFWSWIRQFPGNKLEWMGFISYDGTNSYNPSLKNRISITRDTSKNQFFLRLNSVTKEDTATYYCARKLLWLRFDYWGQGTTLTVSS VL: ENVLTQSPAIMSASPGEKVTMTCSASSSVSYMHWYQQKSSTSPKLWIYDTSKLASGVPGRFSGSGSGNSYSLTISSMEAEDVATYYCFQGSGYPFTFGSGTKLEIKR : 9.71

Now consider the entry below.
Please supply the value of reported Mean Fluorescence Intensity (MFI) for the item Ovr110.Q23 (antibody, IgG1, V domains shown, Mouse hybridoma MAb; also called Q23.6) VH: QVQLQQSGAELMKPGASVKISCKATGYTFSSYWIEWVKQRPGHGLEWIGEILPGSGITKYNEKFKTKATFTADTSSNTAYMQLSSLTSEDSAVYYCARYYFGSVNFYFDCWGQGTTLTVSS VL: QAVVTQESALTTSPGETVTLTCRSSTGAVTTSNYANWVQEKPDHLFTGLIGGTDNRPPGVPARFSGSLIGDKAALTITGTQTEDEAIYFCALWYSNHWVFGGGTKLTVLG
4.35
